Each recorded value in this set is attributed to patent US10669242B2.

target: recombinant glucosyltransferase domain of C. difficile Toxin B/TcdB (Clostridioides difficile, UniProt P18177); construct: 6-His (C); purchased R&D Systems 6246-GT; experiment: biochemical
Sequence (P18177 1-543): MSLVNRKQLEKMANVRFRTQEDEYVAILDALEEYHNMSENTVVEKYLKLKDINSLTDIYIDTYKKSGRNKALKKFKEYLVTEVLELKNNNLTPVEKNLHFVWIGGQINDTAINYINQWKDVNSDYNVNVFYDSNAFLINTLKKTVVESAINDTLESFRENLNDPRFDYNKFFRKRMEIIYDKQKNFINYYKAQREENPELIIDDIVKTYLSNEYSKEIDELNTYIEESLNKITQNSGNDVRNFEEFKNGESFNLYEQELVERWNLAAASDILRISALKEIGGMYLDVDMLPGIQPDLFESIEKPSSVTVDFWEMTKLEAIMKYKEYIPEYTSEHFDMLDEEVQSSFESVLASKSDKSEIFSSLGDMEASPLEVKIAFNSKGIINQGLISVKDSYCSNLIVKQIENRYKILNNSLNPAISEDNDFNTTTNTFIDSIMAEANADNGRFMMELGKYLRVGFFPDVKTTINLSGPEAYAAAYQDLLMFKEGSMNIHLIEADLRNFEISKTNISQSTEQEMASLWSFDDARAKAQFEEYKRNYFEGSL
This listing pairs compounds with measured IC50.

According to the records, this compound Cc1ccc(C(=O)Nc2c(C)cc(CN3C(=O)c4ccc(Cl)cc4NC(=O)[C@H]3Cc3ccccn3)cc2C)nc1 [Example 26l] displays IC50 of 100 to 999 nM

According to the records, this compound O=C(Nc1ccccn1)c1cccc(S(=O)(=O)N2Cc3ccc(Cl)cc3NC(=O)[C@H]2Cc2ccccn2)c1 [Example 19j] displays IC50 of 10000 to 35000 nM

According to the records, this compound `Cn1cc(-c2cc(CN3C(=O)c4ccc(Cl)cc4NC(=O)[C@H]3Cc3ccccn3)ccc2C(=O)O)cn1` displays IC50 of 1000 to 10000 nM

According to the records, this compound `O=C(O)c1ccc(CN2C(=O)c3ccc(Cl)cc3NC(=O)[C@@H]2Cc2ccc(O)cc2)cc1` displays IC50 of 10000 to 35000 nM

According to the records, this compound `O=C(O)c1ccc(CN2C(=O)c3ccc(Cl)cc3NC(=O)[C@H]2Cc2ccccc2F)cc1` displays IC50 of 10000 to 35000 nM

According to the records, this compound `Cc1cncc(NC(=O)c2ccc(CN3C(=O)c4ccc(Cl)cc4NC(=O)[C@H]3C)cc2)n1` displays IC50 of 100 to 999 nM

According to the records, this compound O=C(O)c1ccc(CN2C(=O)c3ccc(Cl)cc3NC(=O)C2Cc2cnccn2)cc1 (stereo not shown) displays IC50 of 1000 to 10000 nM

According to the records, this compound Cc1ccc(NC(=O)c2ccc(CN3C(=O)c4ccc(Cl)cc4NC(=O)[C@H]3CCN3CCN(C)CC3)cc2)nc1 [Example 10d] displays IC50 of 1000 to 10000 nM

According to the records, this compound `Cc1cnc(NC(=O)c2ccc(CN3C(=O)c4ccc(Cl)cc4NC(=O)[C@H]3Cc3ccccn3)cc2)s1` displays IC50 of < 100 nM

According to the records, this compound `C[C@@H]1C(=O)Nc2cc(Cl)ccc2C(=O)N1Cc1ccc(C(=O)O)c(Br)c1` displays IC50 of 10000 to 35000 nM

====

This listing pairs compounds with measured IC50.
biological target: recombinant glucosyltransferase domain of C. difficile Toxin B/TcdB (Clostridioides difficile); construct: 6-His (C); purchased R&D Systems 6246-GT; assay: biochemical

compound=O=C(O)c1ccc(CN2C(=O)c3ccc(F)cc3NC(=O)[C@H]2Cc2ccc(Cl)c(Cl)c2)cc1 observed_value="1000 to 10000 nM"
compound=Cc1cnc(NC(=O)c2ccc(CN3C(=O)c4ccc(Cl)cc4NC(=O)[C@H]3Cc3ccccn3)cc2C)nc1 observed_value="< 100 nM"
compound="CC1C(=O)Nc2cc(Cl)ccc2C(=O)N1C1(c2ccc(C(=O)c3cccn4ccnc34)cc2)CC1 (stereo not drawn) [Example 50a]" observed_value="100 to 999 nM"

According to the records, this compound Cc1ccc(S(=O)(=O)NC(=O)c2ccc(CN3C(=O)c4ccc(Cl)cc4NC(=O)[C@H]3Cc3cccnc3)cc2)cc1 [Example 15e] displays IC50 of 1000 to 10000 nM

According to the records, this compound `O=C(O)c1ccc(CN2C(=O)c3ccc(Cl)cc3NC(=O)[C@H]2Cc2cccs2)cc1` displays IC50 of 10000 to 35000 nM

According to the records, this compound O=C1Nc2cc(Cl)ccc2C(=O)N(Cc2ccc(N3Cc4cccnc4C3=O)cc2)[C@@H]1Cc1ccccn1 [Example 49c] displays IC50 of < 100 nM

According to the records, this compound Cc1ccc(NC(=O)c2ccc(CN3C(=O)c4ccc(Cl)cc4NC(=O)[C@H]3CCN3CCC(O)CC3)cc2)nc1 [Example 10c] displays IC50 of 1000 to 10000 nM

According to the records, this compound COCCC(=O)Nc1cc(CN2C(=O)c3ccc(Cl)cc3NC(=O)[C@H]2Cc2ccccn2)ccc1C(=O)O [Example 22e] displays IC50 of 1000 to 10000 nM

According to the records, this compound O=C(Nc1cc(CN2C(=O)c3ccc(Cl)cc3NC(=O)[C@H]2Cc2ccccn2)ccc1C(=O)O)c1ccccn1 [Example 21a] displays IC50 of 1000 to 10000 nM
